# target.desc: T1, PDL1-hFc (UniProt Q9NZQ7 19-238)
# T1 construct: Coated at 1 µg/ml in the ELISAs of the chimeric and humanized antibodies; construct not described
# assay.comment: ELISA, PDL1-hFc coated 1 µg/ml, antibody supernatant at 300 ng/ml, anti-human Kappa HRP

# binder, OD450-650 nM, 300 ng/ml PDL1 binding / OD
rows = [
    ("3C3 heavy chain Hu-B1 / light chain Hu (antibody, V domains shown, Human IgG, kappa, from pTCAED vectors; tested as culture supernatant) VH: EVQLQESGPGLVKPSQTLSLTCTVSGYSITSDYWDWIRQPPGKGLEWMGYISYTGSTYYNPSLRSRITISRDTSKNQYSLKLSSVTAADTAVYYCARRGGWLSPFVYWGQGTLVTVSS VL: DIQMTQSPSSLSASVGDRVTITCKSRQSLLFSSNQKNSLAWYQQKPGKAPKLLIYWASTRESGVPSRFSGSGSGTDFTLTISSLQPEDFATYYCQQYYTYPFTFGQGTKLEIK", 0.455),
]
